koff values for the binders below.
system-under-test: T1, biotinylated tau 2N4R (Homo sapiens, UniProt P10636-8, biotin (N-hydroxysuccimide-biotin conjugates, 5 M excess))
T1 construct: tau protein, 2N4R isoform, NCBI NP_005901.2; Expressed from pET15b-tau; also called full-length tau; source: E. coli BL21 (DE3), purified (heating, cation exchange), then biotinylated
T1 sequence (P10636 other isoform, or with tags, fused parts or gaps): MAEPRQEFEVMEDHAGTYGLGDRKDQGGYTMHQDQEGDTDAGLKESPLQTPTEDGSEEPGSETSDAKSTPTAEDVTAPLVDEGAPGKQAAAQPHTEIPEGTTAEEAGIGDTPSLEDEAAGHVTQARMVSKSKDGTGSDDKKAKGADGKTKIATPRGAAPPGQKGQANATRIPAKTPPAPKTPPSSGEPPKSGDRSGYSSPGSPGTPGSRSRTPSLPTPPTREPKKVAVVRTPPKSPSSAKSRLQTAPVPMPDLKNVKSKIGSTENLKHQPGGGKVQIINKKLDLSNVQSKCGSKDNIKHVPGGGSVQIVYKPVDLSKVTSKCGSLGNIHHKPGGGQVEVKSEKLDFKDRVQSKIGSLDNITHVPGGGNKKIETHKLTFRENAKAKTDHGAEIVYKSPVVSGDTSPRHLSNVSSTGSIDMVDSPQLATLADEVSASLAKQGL
run-description: SPR; biotinylated tau 2N4R captured on a streptavidin chip (500 RU); VHHs as analytes, 0.125-2 uM, single-cycle kinetics; HBS-EP+ buffer; 1:1 Langmuir model; Kd calculated as koff/kon
test-settings: both partners purified
The reply should be a number in s⁻¹, with the unit left off.

>>> assay_result("VHH Z70 (VHH, VHH Z70; also in PDB 7QCQ; also called parent VHH; source: E. coli BL21 (DE3), periplasm, purified (IMAC, SEC)) VHH: EVQLQASGGVFVQSGGSLRLSCAASGATSTFDGMGWFRQAPGKEREFVSAISYEQGSYTYYADSVKGRFTISRDNSKNMVYLQMNSLRAEDTATYYCAPAYEGDLYAFDSYGGQGTQVTVSS")
0.00267

# input What koff value was documented for this binder, VHH Z70 mutant 1 (G115E) (VHH, as the chain of m1 (VHH Z70); also called Mut1; source: E. coli BL21 (DE3), periplasm, purified (IMAC, SEC)) VHH: EVQLQASGGVFVQSGGSLRLSCAASGATSTFDGMGWFRQAPGKEREFVSAISYEQGSYTYYADSVKGRFTISRDNSKNMVYLQMNSLRAEDTATYYCAPAYEGDLYAFDSYGEQGTQVTVSS ?
# output 0.00242

Cited source: paper PMC11007443
